target: Fructose-bisphosphate aldolase (Mycobacterium tuberculosis (strain ATCC 25618 / H37Rv)) (UniProt P9WQA3); experiment: Mtb FBA enzyme inhibitors, primary screen, biochemical, fluorescence, strain H37Rv (AID 588726); conditions: purified M. tuberculosis FBA, fluorescence read-out, at 1 µM
Sequence (P9WQA3 whole entry, looked up): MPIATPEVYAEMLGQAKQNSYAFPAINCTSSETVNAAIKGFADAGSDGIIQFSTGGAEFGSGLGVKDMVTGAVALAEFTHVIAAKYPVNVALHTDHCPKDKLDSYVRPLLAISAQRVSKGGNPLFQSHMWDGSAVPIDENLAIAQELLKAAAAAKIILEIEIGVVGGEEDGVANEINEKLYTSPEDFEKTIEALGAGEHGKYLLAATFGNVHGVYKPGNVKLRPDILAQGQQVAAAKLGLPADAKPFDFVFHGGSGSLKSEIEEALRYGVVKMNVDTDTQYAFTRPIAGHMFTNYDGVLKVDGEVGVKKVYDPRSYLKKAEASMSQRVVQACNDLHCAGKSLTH
Out of some 360,000 compounds screened, about 8,200 (2.3%) were called active. No stated cut-off is given here; in the data, active means inhibition above about 27%; inactive means the rest. This excerpt belongs to a sample that is enriched for actives.
Give your call using only these classes: TRUE for active, FALSE for inactive

I would be grateful if you could indicate the recorded call for Cc1ccc2nc(-c3cccnc3)c(NC3CCCC3)n2c1 .
FALSE

I would be grateful if you could indicate the recorded call for CCCCN(CCCC)CCC(O)c1cc2c(Cl)cc(Cl)cc2c2cc(C(F)(F)F)ccc12 (configuration not stated) .
FALSE

I would be grateful if you could indicate the recorded call for CCS(=O)(=O)Nc1ccc(C2=NN(S(=O)(=O)c3ccc(F)cc3)C(c3ccco3)C2)cc1 (configuration not stated) .
FALSE

I would be grateful if you could indicate the recorded call for CC1CC2=C(CC1/C=N/NC(N)=S)C(C)(C)CCC2 (configuration not stated) .
FALSE

I would be grateful if you could indicate the recorded call for COc1ccc(-c2nc3cc(C)ccn3c2NC2CCCCC2)cc1SC1CCCCC1 .
TRUE

I would be grateful if you could indicate the recorded call for COc1ccc(C2CC(c3cccs3)=NN2c2ccccc2)cc1 (configuration not stated) .
TRUE

I would be grateful if you could indicate the recorded call for COc1cc2c(cc1OC)C1C(=O)c3cc(OS(C)(=O)=O)c(OC)cc3C1N(C)C2=O (configuration not stated) .
FALSE

I would be grateful if you could indicate the recorded call for COc1ccc(CC(N)c2csc(NC(=O)Nc3ccc(C(C)C)cc3)n2)cc1 (configuration not stated) .
FALSE

I would be grateful if you could indicate the recorded call for Cc1nc(SCC(=O)N2CCc3ccccc3C2)c2c(C)c(C)sc2n1 .
FALSE

I would be grateful if you could indicate the recorded call for O=C(CN1CCN(C(=O)C2CCCO2)CC1)Nc1c(Cl)cccc1Cl (configuration not stated) .
FALSE

I would be grateful if you could indicate the recorded call for COc1ccc(C2=NN(c3ccccc3)C(c3cccs3)C2)cc1 (configuration not stated) .
TRUE

I would be grateful if you could indicate the recorded call for C=CCn1c(-c2ccc(Cl)cc2)ccc(C#N)c1=O .
FALSE

I would be grateful if you could indicate the recorded call for CCS(=O)(=O)Nc1ccc(C2=NN(C(C)=O)C(c3cccs3)C2)cc1 (configuration not stated) .
TRUE

I would be grateful if you could indicate the recorded call for O=C(c1cccc(N2CCCC2=O)c1)N1CCOCC1 .
FALSE

I would be grateful if you could indicate the recorded call for COc1ccc(N2CCN(C(=S)Nc3ccc(S(N)(=O)=O)cc3)CC2)cc1 .
FALSE

I would be grateful if you could indicate the recorded call for COc1cccc(C2CC(c3ccccc3)=NN2S(=O)(=O)c2ccccc2)c1OC (configuration not stated) .
FALSE

I would be grateful if you could indicate the recorded call for Cc1nc2cccnc2nc1C .
FALSE

I would be grateful if you could indicate the recorded call for Cc1ccc(C2CC(c3cccc(NS(C)(=O)=O)c3)=NN2S(C)(=O)=O)cc1 (configuration not stated) .
FALSE

I would be grateful if you could indicate the recorded call for C=CCn1cc(-c2cccc(C(F)(F)F)c2)cc(C#N)c1=O .
TRUE

I would be grateful if you could indicate the recorded call for CS(=O)(=O)Nc1cccc(C2=NN(C(=O)c3cccc(F)c3)C(c3cccs3)C2)c1 (configuration not stated) .
FALSE

I would be grateful if you could indicate the recorded call for CC1(Cc2cccc(C#N)c2)C(=O)Nc2ccc(-c3cccc(C(F)(F)F)c3)cc21 (configuration not stated) .
FALSE

I would be grateful if you could indicate the recorded call for COc1ccc(C2CC(c3cccs3)=NN2C(=O)COC(=O)c2cc3ccccc3cc2O)cc1OC (configuration not stated) .
FALSE
